biological target: pooled human IgG (human IgG1,2,3 and 4)
MEASURED METRIC: Enzyme Activity Endpoint Assay (purified): Fab′2 (ng/µL)
Enter your answer as a number in ng/µL; do not include the unit.

Retrieve Enzyme Activity Endpoint Assay (purified): Fab′2 measured for PRT-459 (protein) MVTSVWTKGVTPPTDFIKGEDVFHAPYKAGQGWYDITKAFDGGDDLLCGAATAGNMLHWWFDQNKDQIERYLKEHPEKQKINFNGEQMFDVKEAIDTKDSQTNSELFNYFKEKAFPYLSTKHLGVFPDHVLDMFINGYRLSLTNHGPTPVKEGSKDPRGGIFDAVFTRGDQSKLLTSRHDFKEKTLKEISDLIKQELTEGKALGLSHTYANVRINHVINLWGADFDSEGNLKAIYVTDSDSNASIGMKKYFVGVNSAGKVAISAKEIKEDNIGAQVLGLFTLSTGQDIWNQTNLEHHHHHH and print it.
137
